# HDAC3 activity raw data (signal) annotations
target: HDAC3 (Homo sapiens); construct: purchased Reaction Biology Corporation (assay run by the CRO); experiment: HDAC3 inhibition, full IC50 measurement (Reaction Biology; fluorogenic p53 peptide RHKK(Ac)AMC); type: biochemical; settings: Conc. 4.57E-09 M, t2
Sequence (O15379 whole entry): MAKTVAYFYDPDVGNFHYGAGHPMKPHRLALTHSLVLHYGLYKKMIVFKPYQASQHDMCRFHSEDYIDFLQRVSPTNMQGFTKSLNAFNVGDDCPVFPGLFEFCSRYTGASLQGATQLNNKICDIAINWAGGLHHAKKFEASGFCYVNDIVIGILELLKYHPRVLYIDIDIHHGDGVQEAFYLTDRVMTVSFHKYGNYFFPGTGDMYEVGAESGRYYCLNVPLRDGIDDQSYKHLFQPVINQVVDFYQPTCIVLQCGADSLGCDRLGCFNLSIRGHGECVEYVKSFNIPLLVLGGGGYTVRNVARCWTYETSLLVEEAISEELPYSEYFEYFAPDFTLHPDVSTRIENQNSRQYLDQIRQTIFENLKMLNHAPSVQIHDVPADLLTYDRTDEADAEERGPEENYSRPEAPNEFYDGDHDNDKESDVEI
Sequence (Q9Y618 395-489 partner limits assumed): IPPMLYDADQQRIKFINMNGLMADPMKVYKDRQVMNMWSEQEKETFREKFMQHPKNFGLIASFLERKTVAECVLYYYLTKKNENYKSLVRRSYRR
Peptide text beside a SMILES is read from it.
Number, no unit, nothing else.

compound	assayed-target	measured-attribute	result
NCCCC[C@H]1NC(=O)[C@H](CCC(N)=O)NC(=O)[C@H](CCC(=O)O)NC(=O)[C@@H]2CCCN2C(=O)[C@H](CC(N)=O)NC(=O)[C@H](CCCCCS)NC(=O)CNC(=O)[C@H](Cc2c[nH]c3ccccc23)NC1=O [des1.1.1, SHA-Asn-Pro-Glu-Gln-dLys-Trp-Gly] (HELM PEPTIDE1{E.Q.[dK].W.G.[O=C([C@H](CCCCCS)N[*:1])[*:2]].N.P}$PEPTIDE1,PEPTIDE1,1:R1-8:R2$$$V2.0)	HDAC3 (Homo sapiens)	HDAC3 activity raw data (signal)	1217433
N=C(N)NCCC[C@@H]1NC(=O)[C@@H](CCCNC(=N)N)NC(=O)[C@H]2CCCN2C(=O)[C@@H](Cc2c[nH]cn2)NC(=O)[C@H](Cc2ccc(O)cc2)NC(=O)[C@H](CCCCCS)NC(=O)[C@H](CCc2ccccc2)NC(=O)[C@@H](CO)NC(=O)[C@H](CC(=O)O)NC1=O [des3.3.1, SHA-Tyr-dHis-dPro-dArg-Arg-Asp-dSer-C27] (HELM PEPTIDE1{[O=C([C@H](CCCCCS)N[*:1])[*:2]].Y.[dH].[dP].[dR].R.D.[dS].[O=C([C@H](CCc1ccccc1)N[*:1])[*:2]]}$PEPTIDE1,PEPTIDE1,1:R1-9:R2$$$V2.0)	HDAC3 (Homo sapiens)	HDAC3 activity raw data (signal)	144441
N=C(N)NCCC[C@@H]1NC(=O)[C@H](Cc2c[nH]c3ccccc23)NC(=O)[C@H](CC(=O)O)NC(=O)[C@@H](CO)NC(=O)[C@H](Cc2c[nH]c3ccccc23)NC(=O)[C@H](CCCCCS)NC(=O)[C@H](CCC(N)=O)NC1=O [des4.1.0, SHA-Trp-dSer-Asp-Trp-Arg-Gln] (HELM PEPTIDE1{D.W.R.Q.[O=C([C@H](CCCCCS)N[*:1])[*:2]].W.[dS]}$PEPTIDE1,PEPTIDE1,1:R1-7:R2$$$V2.0)	HDAC3 (Homo sapiens)	HDAC3 activity raw data (signal)	1022661
CSCC[C@H]1NC(=O)[C@@H](CO)NC(=O)[C@H](CC(N)=O)NC(=O)[C@H](CC(=O)O)NC(=O)[C@@H]([C@H](C)O)NC(=O)[C@H](Cc2c[nH]c3ccccc23)NC(=O)[C@H](CCCCCS)NC(=O)[C@H](CCCCN)NC(=O)[C@@H](CC(=O)O)NC1=O [des2.1.1, SHA-Trp-dThr-Asp-Asn-dSer-dMet-dAsp-Lys] (HELM PEPTIDE1{D.N.[dS].[dM].[dD].K.[O=C([C@H](CCCCCS)N[*:1])[*:2]].W.[dT]}$PEPTIDE1,PEPTIDE1,1:R1-9:R2$$$V2.0)	HDAC3 (Homo sapiens)	HDAC3 activity raw data (signal)	1052923

Proceed to the following item.
Please list HDAC3 activity raw data (signal) recorded for the compound CC(C)C[C@H]1NC(=O)[C@H](Cc2c[nH]c3ccccc23)NC(=O)[C@H](CCCCCS)NC(=O)[C@@H](Cc2ccc(O)cc2)NC(=O)[C@@H](C(C)C)NC(=O)[C@H](Cc2c[nH]cn2)NC(=O)CNC(=O)CNC(=O)[C@@H](CO)NC1=O [des2.2.0, SHA-Trp-dLeu-dSer-Gly-Gly-His-dVal-dTyr] (HELM PEPTIDE1{G.G.H.[dV].[dY].[O=C([C@H](CCCCCS)N[*:1])[*:2]].W.[dL].[dS]}$PEPTIDE1,PEPTIDE1,1:R1-9:R2$$$V2.0)
1050723
